PROTOCOL DETAILS: in vitro
TEST CONTEXT: African green monkey
Give measured CC50 for each item. Keep answers brief.
# value in µg/mL; strip the unit string

Ask: Retrieve CC50 measured for O=c1nc(NO)ccn1[C@@H]1O[C@H](CO)[C@H](O)C1O (some centres unmarked) [drawing 76] and print it.
Result: 36

Ask: Identify CC50 associated with the molecule CCCCCCCCC(=O)ONc1ccn([C@@H]2O[C@H](CO)[C@H](O)C2O)c(=O)n1 (some centres unmarked)
Result: 36

====

PROTOCOL DETAILS: Rodent pharmacokinetic experiment in DBA-1J mice
Format: in vivo
TEST CONTEXT: female, DBA-1J, mouse, plasma, after PO dosing, read-out: plasma T1/2
ENDPOINT LABEL: half-life

Ask: Indicate its recorded half-life; the compound in question is O=c1nc(NO)ccn1[C@@H]1O[C@H](CO)[C@H](O)C1O (stereo in doubt)
Result: 4.1 to 4.7 h

====

Give Cell Viability 10 uM for every item shown.
System: VERO
PROTOCOL DETAILS: Cell viability, VERO (MERV screen)
Assay type: cell-based
TEST CONTEXT: 10 uM

Ask: Specify measured Cell Viability 10 uM for O=c1nc(NO)ccn1[C@@H]1O[C@H](CO)[C@H](O)C1O (stereo partly shown) [drawing 96] .
Result: 75% ± 6% (n = 4)

Ask: Please list Cell Viability 10 uM recorded for the compound CCCCCCCOC(=O)ONc1ccn([C@@H]2O[C@H](CO)[C@H](O)C2O)c(=O)n1 (stereo partly shown) [drawing 97]
Result: 84% ± 8% (n = 4)

Ask: Specify Cell Viability 10 uM for CC(C)OC(=O)[C@H](C)NP(=O)(OC[C@H]1O[C@@H](n2ccc(NO)nc2=O)C(O)[C@H]1O)Oc1ccccc1 (stereo partly shown) [drawing 98] and stop.
Result: 103% ± 14% (n = 4)

Ask: State, in one line, measured Cell Viability 10 uM of CCCCCCCNC(=O)ONc1ccn([C@@H]2O[C@H](CO)[C@H](O)C2O)c(=O)n1 (stereo partly shown) [drawing 100]
Result: 118% ± 15% (n = 4)

====

Record form. Attribute: Cell Viability 50 uM. Fill in for each entry.
Tested on: HeLa
TEST CONTEXT: 50 uM

Ask: # lookup: HeLa Cell Viability 50 uM, key = CC(C)OC(=O)[C@H](C)NP(=O)(OC[C@H]1O[C@@H](n2ccc(NO)nc2=O)C(O)[C@H]1O)Oc1ccccc1 (some centres unmarked) [drawing 88]
Result: 134% ± 16% (n = 4)

Ask: Report value only: Cell Viability 50 uM, HeLa, O=c1nc(NO)ccn1[C@@H]1O[C@H](CO)[C@H](O)C1O (some centres unmarked) [drawing 86]
Result: 61% ± 8% (n = 4)

Ask: Give Cell Viability 50 uM for this entry on HeLa: CCCCCCCOC(=O)ONc1ccn([C@@H]2O[C@H](CO)[C@H](O)C2O)c(=O)n1 (some centres unmarked) [drawing 87]
Result: 85% ± 8% (n = 4)

Ask: Look up and report Cell Viability 50 uM, with HeLa as system, for CCCCCCCNC(=O)ONc1ccn([C@@H]2O[C@H](CO)[C@H](O)C2O)c(=O)n1 (some centres unmarked) [drawing 90]
Result: 126% ± 7% (n = 4)

Ask: Please report Cell Viability 50 uM with HeLa for item O=c1nc(NO)c(F)cn1[C@@H]1O[C@H](CO)[C@H](O)C1O (some centres unmarked) [drawing 89] .
Result: 36% ± 2% (n = 4)

Values compiled from patent US10874683B2.
